Experiment: TOX21_p53_BLA_p3_viability: Viability Assessment in the Tox21 HCT-116 p53 Agonism Beta-lactamase Assay, Phase 3 (AID 2283593);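 also: cells exposed to compound for 16 h before reading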
Results filed as inconclusive are left out. The source made the active and inactive calls. The calls were made as follows: active = hit-call score of the fitted dose curve at least 0.9, where 1 is the maximum; inconclusive = response in the unintended direction; inactive = score below 0.9.
parameter: AC50

The following molecules have reported results that may help.
# molecule, AC50
records = [
    ("OCC(Cl)CCl (stereo not drawn)", "inactive"),
    ("O=[N+]([O-])O", "inactive"),
    ("C[N+]1(C)[C@@H]2CC[C@H]1CC(OC(=O)c1c[nH]c3ccccc13)C2 (stereo partly drawn)", "inactive"),
    ("Nc1n[nH]c(N)n1", "inactive"),
    ("CC(Oc1ccc(Oc2ncc(C(F)(F)F)cc2Cl)cc1)C(=O)O (stereo not drawn)", "inactive"),
]

Input: Return value of AC50 for input Cc1cc(C)c(C(=O)P(=O)(C(=O)c2c(C)cc(C)cc2C)c2ccccc2)c(C)c1 , no commentary.
Output: inactive

Input: Return value of AC50 for input CNC(=O)ON=C(CSC)C(C)(C)C , no commentary.
Output: inactive

Input: Return value of AC50 for input O=c1c2ccccc2[se]n1-c1ccccc1 , no commentary.
Output: inactive

Input: Return value of AC50 for input Oc1cccc[c]1[Hg][Cl] , no commentary.
Output: 9.5 µM (active)

Input: Return value of AC50 for input CCNC1(c2cccs2)CCCCC1=O (stereo not drawn) , no commentary.
Output: inactive

Input: Return value of AC50 for input C[C@]12CC[C@H]3[C@@H](CCC4=C(Cl)C(=O)CC[C@@]43C)[C@@H]1CC[C@@H]2O , no commentary.
Output: inactive

Input: Return value of AC50 for input O=C(CCN1CC1)OCC(CO)(COC(=O)CCN1CC1)COC(=O)CCN1CC1 , no commentary.
Output: inactive

Input: Return value of AC50 for input CSCCCN=C=S , no commentary.
Output: inactive

Input: Return value of AC50 for input CCN(CC)C(=O)N[C@H]1C[C@@H]2c3cccc4[nH]cc(c34)C[C@H]2N(C)C1 , no commentary.
Output: inactive

Input: Return value of AC50 for input IC(I)=C(I)I , no commentary.
Output: inactive
